# experiment.summary: Plasma concentration in nude mouse xenografted with HEL 92.1.7 cells at 30 mg/kg, po after 4 hrs
# Type: ADME, organism-based
# Parameters: dose 30 mg/kg, route oral

smiles.representation | concentration at 4 h [nM]
O=C(Nc1ccc(-c2ccnc(Nc3ccc(N4CCOCC4)cc3)n2)cc1)[C@H]1CCCN1 | 830

###

# experiment.summary: Metabolic stability in mouse liver microsomes assessed as compound remaining after 30 mins
# Type: ADME, Microsome
# run.conditions: read-out: Stability
parameter.measured: remaining at 0.5 h (%)

smiles.representation | observed.value
O=C(Nc1ccc(-c2ccnc(Nc3ccc(N4CCOCC4)cc3)n2)cc1)[C@H]1CCCN1 | 62

###

# experiment.summary: Drug uptake in nude mouse xenografted with HEL 92.1.7 cells at 30 mg/kg, po after 4 hrs
# Type: ADME, organism-based
# Parameters: dose 30 mg/kg, route oral
# run.conditions: in vivo, read-out: Drug uptake

smiles.representation | concentration at 4 h [nM]
O=C(Nc1ccc(-c2ccnc(Nc3ccc(N4CCOCC4)cc3)n2)cc1)[C@H]1CCCN1 | 2000

###

# experiment.summary: Cmax in Beagle dog at 3 mg/kg, iv
# Type: ADME, organism-based, Canis lupus familiaris
# Set-up: dose 3 mg/kg, route intravenous
# run.conditions: in vivo
parameter.measured: Cmax (nM)

smiles.representation | parameter.measured | observed.value
O=C(Nc1ccc(-c2ccnc(Nc3ccc(N4CCOCC4)cc3)n2)cc1)[C@H]1CCCN1 | Cmax | 440

###

# experiment.summary: Plasma concentration in nude mouse xenografted with HEL 92.1.7 cells at 100 mg/kg, po after 4 hrs
# Assay type: ADME, organism-based
# Parameters: dose 100 mg/kg, route oral
parameter.measured: concentration at 4 h (µM)

smiles.representation | parameter.measured | output.unit | observed.value
O=C(Nc1ccc(-c2ccnc(Nc3ccc(N4CCOCC4)cc3)n2)cc1)[C@H]1CCCN1 | concentration at 4 h | µM | 5.35

###

# experiment.summary: Half life in athymic nude mouse at 10 mg/kg, iv
# Assay type: ADME, organism-based
# Parameters: dose 10 mg/kg, route intravenous
# run.conditions: in vivo
parameter.measured: half-life (min)

smiles.representation | observed.value
O=C(Nc1ccc(-c2ccnc(Nc3ccc(N4CCOCC4)cc3)n2)cc1)[C@H]1CCCN1 | 67.8

###

# experiment.summary: Oral bioavailability in cynomolgus monkey at 3 mg/kg
# Assay type: ADME, organism-based, Macaca fascicularis
# run.conditions: in vivo

smiles.representation | output.unit | bioavailability
O=C(Nc1ccc(-c2ccnc(Nc3ccc(N4CCOCC4)cc3)n2)cc1)[C@H]1CCCN1 | % | 68.6

###

# experiment.summary: Half life in athymic nude mouse at 10 mg/kg, po
# Assay type: ADME, organism-based
# Set-up: dose 10 mg/kg, route oral
# run.conditions: in vivo
parameter.measured: half-life (h)

smiles.representation | observed.value
O=C(Nc1ccc(-c2ccnc(Nc3ccc(N4CCOCC4)cc3)n2)cc1)[C@H]1CCCN1 | 1.94

###

# experiment.summary: Cmax in CD rat at 5 mg/kg, iv
# Assay type: ADME, organism-based
# Design: dose 5 mg/kg, route intravenous
# run.conditions: in vivo

smiles.representation | output.unit | Cmax
O=C(Nc1ccc(-c2ccnc(Nc3ccc(N4CCOCC4)cc3)n2)cc1)[C@H]1CCCN1 | µM | 13

###

# tested.system: Tyrosine-protein kinase JAK2 (Homo sapiens, UniProt O60674)
# Sequence (O60674 whole entry): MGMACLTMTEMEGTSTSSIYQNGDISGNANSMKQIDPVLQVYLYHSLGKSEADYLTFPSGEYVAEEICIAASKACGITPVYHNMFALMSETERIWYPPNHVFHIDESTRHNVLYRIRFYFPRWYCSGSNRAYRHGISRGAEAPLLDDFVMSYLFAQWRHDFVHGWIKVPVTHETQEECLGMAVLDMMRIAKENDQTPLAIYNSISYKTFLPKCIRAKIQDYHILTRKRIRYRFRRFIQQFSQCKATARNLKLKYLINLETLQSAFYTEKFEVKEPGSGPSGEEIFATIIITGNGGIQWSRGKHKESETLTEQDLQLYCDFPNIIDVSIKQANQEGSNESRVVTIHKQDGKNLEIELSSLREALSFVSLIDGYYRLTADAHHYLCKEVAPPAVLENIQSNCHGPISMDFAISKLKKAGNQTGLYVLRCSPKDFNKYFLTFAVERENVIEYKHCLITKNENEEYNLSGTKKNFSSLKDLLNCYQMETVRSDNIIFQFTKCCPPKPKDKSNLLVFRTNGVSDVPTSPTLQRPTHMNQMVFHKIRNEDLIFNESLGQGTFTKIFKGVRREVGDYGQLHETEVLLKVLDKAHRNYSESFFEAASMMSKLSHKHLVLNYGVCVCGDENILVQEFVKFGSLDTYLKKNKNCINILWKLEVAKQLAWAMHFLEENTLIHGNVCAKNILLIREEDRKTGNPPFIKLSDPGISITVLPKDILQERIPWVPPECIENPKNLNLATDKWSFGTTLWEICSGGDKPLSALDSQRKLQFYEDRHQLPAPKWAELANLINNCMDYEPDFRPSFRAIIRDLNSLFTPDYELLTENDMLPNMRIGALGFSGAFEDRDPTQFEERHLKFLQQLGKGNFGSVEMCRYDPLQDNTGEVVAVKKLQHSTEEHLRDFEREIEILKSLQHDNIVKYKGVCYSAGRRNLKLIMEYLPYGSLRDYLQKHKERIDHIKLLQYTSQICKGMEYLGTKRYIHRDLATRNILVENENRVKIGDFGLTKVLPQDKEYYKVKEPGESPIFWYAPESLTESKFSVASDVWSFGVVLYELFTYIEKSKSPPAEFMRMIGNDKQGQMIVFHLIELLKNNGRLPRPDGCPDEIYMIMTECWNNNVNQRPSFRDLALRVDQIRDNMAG
Flag rule - IC50 less than 1000 nM flags true; the remaining entries get false.

smiles.representation | assigned.class
C[C@H](N)C(=O)Nc1ccc(-c2ccnc(Nc3ccc(N4CCOCC4)cc3)n2)cc1 | false
CN1CCC[C@@H]1C(=O)Nc1ccc(-c2ccnc(Nc3ccc(N4CCOCC4)cc3)n2)cc1 | false
CC(=O)Nc1ccc(-c2ccnc(Nc3cccc(NC(=O)c4c(Cl)cccc4Cl)c3)n2)cc1 | true
CC(=O)Nc1ccc(-c2ccnc(Nc3ccccc3)n2)cc1 | false
C[C@@H](N)C(=O)Nc1ccc(-c2ccnc(Nc3ccc(N4CCOCC4)cc3)n2)cc1 | true
CC(=O)Nc1ccc(-c2ccnc(Nc3cccc(N4CCOCC4)c3)n2)cc1 | true
CCN1CCC[C@@H]1C(=O)Nc1ccc(-c2ccnc(Nc3ccc(N4CCOCC4)cc3)n2)cc1 | false
CC(=O)Nc1ccc(-c2ccnc(Nc3cccc(N4CCCCC4)c3)n2)cc1 | false
CC(=O)Nc1ccc(-c2ccnc(Nc3ccc(N4CCOCC4)cc3)n2)cc1 | true
N[C@H](CO)C(=O)Nc1ccc(-c2ccnc(Nc3ccc(N4CCOCC4)cc3)n2)cc1 | false

###

Lab note: IC50 readings collected with Tyrosine-protein kinase JAK2 (Homo sapiens, UniProt O60674) for the following molecules.

molecule | IC50
C[C@H](N)C(=O)Nc1ccc(-c2ccnc(Nc3ccc(N4CCOCC4)cc3)n2)cc1 | 8.7 nM
CC(=O)Nc1ccc(-c2cc(Nc3ccc(N4CCOCC4)cc3)ncn2)cc1 | > 980 nM
O=C1CC[C@H](C(=O)Nc2ccc(-c3ccnc(Nc4ccc(N5CCOCC5)cc4)n3)cc2)N1 | 0.9 nM
C[C@@H](N)C(=O)Nc1ccc(-c2ccnc(Nc3ccc(N4CCOCC4)cc3)n2)cc1 | 1.7 nM
CC(=O)Nc1ccc(-c2ccnc(NC3CCCC(NC(=O)c4c(Cl)cccc4Cl)C3)n2)cc1 (centres undefined) | > 980 nM
CC(=O)Nc1ccc(-c2ccnc(Nc3cccc(NC(=O)c4c(Cl)cccc4Cl)c3)n2)cc1 | 12.6 nM
CC(=O)Nc1ccc(-c2ccnc(Nc3cccc(N4CCCCC4)c3)n2)cc1 | 6.5 nM
CC(=O)Nc1ccc(-c2ccnc(NCCCNC(=O)c3c(Cl)cccc3Cl)n2)cc1 | 104 nM
CC(=O)Nc1ccc(-c2nc(Nc3ccc(N4CCOCC4)cc3)ncc2C(F)(F)F)cc1 | 39.6 nM

###

# experiment.summary: Half life in Beagle dog at 3 mg/kg, iv
# Assay type: ADME, organism-based, Canis lupus familiaris
# Set-up: dose 3 mg/kg, route intravenous
# run.conditions: in vivo
parameter.measured: half-life (h)

smiles.representation | observed.value
O=C(Nc1ccc(-c2ccnc(Nc3ccc(N4CCOCC4)cc3)n2)cc1)[C@H]1CCCN1 | 6

###

# experiment.summary: Cmax in Beagle dog at 3 mg/kg, po
# Format: ADME, organism-based, Canis lupus familiaris
# Design: dose 3 mg/kg, route oral
# run.conditions: in vivo
parameter.measured: Cmax

smiles.representation | observed.value
O=C(Nc1ccc(-c2ccnc(Nc3ccc(N4CCOCC4)cc3)n2)cc1)[C@H]1CCCN1 | 170 nM

###

# tested.system: Tyrosine-protein kinase JAK2 (Homo sapiens, UniProt O60674)
Class field: derived from IC50; ranges bucket 1 = under 5 nM, bucket 2 = from 5 nM up to 9 nM, bucket 3 = 9 nM and over

smiles.representation | assigned.class
O=C(Nc1ccc(-c2ccnc(Nc3ccc(N4CCOCC4)cc3)n2)cc1)[C@H]1CCNC1 | bucket 2
CC(=O)Nc1ccc(-c2cc(C)nc(Nc3ccc(N4CCOCC4)cc3)n2)cc1 | bucket 3
CC(=O)Nc1ccc(-c2nc(Nc3ccc(N4CCOCC4)cc3)ncc2F)cc1 | bucket 1
N[C@H](CO)C(=O)Nc1ccc(-c2ccnc(Nc3ccc(N4CCOCC4)cc3)n2)cc1 | bucket 1
CN1CCC[C@@H]1C(=O)Nc1ccc(-c2ccnc(Nc3ccc(N4CCOCC4)cc3)n2)cc1 | bucket 2
CC(=O)Nc1ccc(-c2ccnc(NCC3CN(C(=O)c4c(Cl)cccc4Cl)C3)n2)cc1 | bucket 3
CC(=O)Nc1ccc(-c2ccnc(Nc3cccc(NC(=O)c4c(Cl)cccc4Cl)n3)n2)cc1 | bucket 3
CC(=O)Nc1ccc(-c2ccnc(Nc3cccc(NC(=O)c4ccccc4Cl)c3)n2)cc1 | bucket 2
CC(=O)Nc1ccc(-c2ccnc(Nc3cccc(N4CCOCC4)c3)n2)cc1 | bucket 1
CC(=O)Nc1ccc(-c2ccnc(Nc3ccccc3)n2)cc1 | bucket 3

###

# experiment.summary: Cmax in athymic nude mouse at 10 mg/kg, po
# Assay type: ADME, organism-based
# Parameters: dose 10 mg/kg, route oral
# run.conditions: in vivo

smiles.representation | Cmax
O=C(Nc1ccc(-c2ccnc(Nc3ccc(N4CCOCC4)cc3)n2)cc1)[C@H]1CCCN1 | 570 nM

###

# experiment.summary: Half life in cynomolgus monkey at 3 mg/kg, po
# Assay type: ADME, organism-based, Macaca fascicularis
# Set-up: dose 3 mg/kg, route oral
# run.conditions: in vivo

smiles.representation | half-life (h)
O=C(Nc1ccc(-c2ccnc(Nc3ccc(N4CCOCC4)cc3)n2)cc1)[C@H]1CCCN1 | 3.36

###

# tested.system: Inhibitor of nuclear factor kappa-B kinase subunit beta (Homo sapiens)
# Sequence (O14920 whole entry): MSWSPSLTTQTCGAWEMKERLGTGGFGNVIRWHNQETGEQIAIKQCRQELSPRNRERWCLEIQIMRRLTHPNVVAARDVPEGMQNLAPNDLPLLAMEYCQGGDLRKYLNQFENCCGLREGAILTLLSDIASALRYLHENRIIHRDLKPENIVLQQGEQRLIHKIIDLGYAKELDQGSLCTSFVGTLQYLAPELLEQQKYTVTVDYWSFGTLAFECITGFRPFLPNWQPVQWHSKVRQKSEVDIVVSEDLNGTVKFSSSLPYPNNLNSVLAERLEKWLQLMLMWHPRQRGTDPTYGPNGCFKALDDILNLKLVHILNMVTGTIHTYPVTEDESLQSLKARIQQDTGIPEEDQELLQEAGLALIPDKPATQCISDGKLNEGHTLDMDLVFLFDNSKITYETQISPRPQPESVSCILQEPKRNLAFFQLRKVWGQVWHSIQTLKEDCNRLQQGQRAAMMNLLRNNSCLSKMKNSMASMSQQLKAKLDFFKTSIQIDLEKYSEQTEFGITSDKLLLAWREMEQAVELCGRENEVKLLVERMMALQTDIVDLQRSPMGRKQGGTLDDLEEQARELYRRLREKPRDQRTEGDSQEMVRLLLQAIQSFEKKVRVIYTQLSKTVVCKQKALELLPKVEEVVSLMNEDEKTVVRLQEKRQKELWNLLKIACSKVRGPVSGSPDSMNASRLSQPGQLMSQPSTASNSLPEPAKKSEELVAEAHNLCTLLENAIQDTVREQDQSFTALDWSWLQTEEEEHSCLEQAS
# experiment.summary: Inhibition of IKKbeta
pIC50: −log10 of the molar value.

smiles.representation | pIC50
O=C(Nc1ccc(-c2ccnc(Nc3ccc(N4CCOCC4)cc3)n2)cc1)[C@H]1CCCN1 | 6.43

###

# experiment.summary: Cmax in cynomolgus monkey at 3 mg/kg, iv
# Assay type: ADME, organism-based, Macaca fascicularis
# Set-up: dose 3 mg/kg, route intravenous
# run.conditions: in vivo
parameter.measured: Cmax (nM)

smiles.representation | observed.value
O=C(Nc1ccc(-c2ccnc(Nc3ccc(N4CCOCC4)cc3)n2)cc1)[C@H]1CCCN1 | 640
